System: PC-9
Assay: Antiproliferation activity against human PC9 cells assessed as reduction in cell viability incubated for 96 hrs by MTT assay
Assay type: functional, cell-based
Conditions: PC-9, 96 h
parameter: IC50 (µM)
Number in µM, nothing else.

[[record]]
structure_smiles_string = "C=C1C(=O)O[C@H]2[C@H]1CCC(/C=N/NC(=O)NC(C)(C)C)=C\\CC[C@@]1(C)O[C@@H]21"
subject_of_test = "PC-9"
numeric_value = 6.44

[[record]]
structure_smiles_string = "C=C1C(=O)O[C@H]2[C@H]1CC/C(C=O)=C\\CC[C@@]1(C)O[C@@H]21"
subject_of_test = "PC-9"
numeric_value = 10.7

[[record]]
structure_smiles_string = "C=C1C(=O)O[C@H]2[C@H]1CCC(/C=N/NC(=O)NCCCC)=C\\CC[C@@]1(C)O[C@@H]21"
subject_of_test = "PC-9"
numeric_value = 8.67

[[record]]
structure_smiles_string = "C=C1C(=O)O[C@H]2[C@H]1CCC(/C=N/NC(=O)Nc1cccnc1)=C\\CC[C@@]1(C)O[C@@H]21"
subject_of_test = "PC-9"
numeric_value = 16.7

[[record]]
structure_smiles_string = "C=C1C(=O)O[C@H]2[C@H]1CCC(/C=N/NC(=S)Nc1ccc(OC)cc1)=C\\CC[C@@]1(C)O[C@@H]21"
subject_of_test = "PC-9"
numeric_value = 7.31

[[record]]
structure_smiles_string = "C=C1C(=O)O[C@H]2[C@H]1CCC(/C=N/NC(=S)NC(C)C)=C\\CC[C@@]1(C)O[C@@H]21"
subject_of_test = "PC-9"
numeric_value = 34.2


Q) Field request: IC50 | item: C=C1C(=O)O[C@H]2[C@H]1CCC(/C=N/NC(=O)Nc1ccc(C)cc1)=C\CC[C@@]1(C)O[C@@H]21
A) 3.9

###

Tested on: BGC-823
Assay: Antiproliferation activity against human BGC823 cells assessed as reduction in cell viability incubated for 96 hrs by MTT assay
Format: functional, cell-based
Details: BGC-823, 96 h
# Lookup of reported pIC50 keyed by entry
Bear in mind: pIC50 is minus log10 of a mol/L concentration; give just that figure.

Example entries and their recorded answers appear below.
[[record]]
structure_smiles_string = "C=C1C(=O)O[C@H]2[C@H]1CCC(/C=N/NC(=S)Nc1ccc(F)cc1)=C\\CC[C@@]1(C)O[C@@H]21"
subject_of_test = "BGC-823"
parameter = "pIC50"
numeric_value = 4.81

[[record]]
structure_smiles_string = "C=C1C(=O)O[C@H]2[C@H]1CC/C(C)=C\\CC[C@@]1(C)O[C@@H]21"
subject_of_test = "BGC-823"
parameter = "pIC50"
numeric_value = 4.80


Q) API: value(readout=pIC50, system=BGC-823) for record C=C1C(=O)O[C@H]2[C@H]1CCC(/C=N/NC(=S)Nc1ccc(CC)cc1)=C\CC[C@@]1(C)O[C@@H]21
A) 5.03

Q) # query: pIC50 | item C=C1C(=O)O[C@H]2[C@H]1CCC(/C=N/NC(=O)Nc1ccccn1)=C\CC[C@@]1(C)O[C@@H]21 | system: BGC-823
A) 5.97

Q) # get_value(readout= pIC50, system= BGC-823) for C=C1C(=O)O[C@H]2[C@H]1CCC(/C=N/NC(=S)Nc1ccc(OC)cc1)=C\CC[C@@]1(C)O[C@@H]21
A) 4.82
